The measurements presented in this section are drawn from patent US11548903B2.

Entries and their IC50
# TESTED_TARGET: human recombinant BACE2 (Homo sapiens (Human))
# ASSAY_INFO: In vitro enzymatic BACE2 FRET assay
# TEST_CONDITIONS: read-out: BACE2 Enzyme IC50
Express it in nM; write the number only.

These solved cases illustrate the format of a correct answer.
COMPOUND	READOUT_NAME	U	OBSERVED_RESULT
N#Cc1cnc(/C(F)=C/c2ccc(F)c([C@]34CO[C@H](C(F)(F)F)[C@H]3CSC(N)=N4)c2)cn1	IC50	nM	341
N#Cc1ccc(/C(F)=C/c2ccc(F)c([C@@]34CN(c5ncc(F)cn5)C[C@@H]3CSC(N)=N4)c2)nc1	IC50	nM	27.2
N#Cc1ccc(/C(F)=C/c2ccc(F)c([C@@]34COC[C@@H]3CSC(N)=N4)c2)nc1	IC50	nM	6390

**Query** Answer with the recorded IC50 of "C#CCOc1cnc(/C(F)=C/c2ccc(F)c([C@]34CN(C(=O)OCC)C[C@H]3CSC(N)=N4)c2)cn1" only.
**Result** 214

**Query** Answer with the recorded IC50 of "C#CCOc1cnc(/C(F)=C/c2ccc(F)c([C@]34CN(C(=O)CC(F)(F)F)C[C@H]3CSC(N)=N4)c2)cn1" only.
**Result** 510

**Query** Answer with the recorded IC50 of "NC1=N[C@@]2(c3cc(/C=C(\F)c4ncc(C(F)(F)F)cc4Cl)ccc3F)CO[C@H](C(F)(F)F)[C@H]2CS1" only.
**Result** 605

**Query** Answer with the recorded IC50 of "N#Cc1ccc(/C(F)=C/c2ccc(F)c([C@]34CO[C@H](C(F)(F)F)[C@H]3CSC(N)=N4)c2)nc1" only.
**Result** 334

**Query** Answer with the recorded IC50 of "NC1=N[C@@]2(c3cc(/C=C(\F)c4ccc(OC(F)(F)F)cn4)ccc3F)CO[C@H](C(F)(F)F)[C@H]2CS1" only.
**Result** 2220

**Query** Answer with the recorded IC50 of "NC1=N[C@]2(c3cc(/C=C(\F)c4ccc(Cl)cn4)ccc3F)CN(c3ncc(F)cn3)C[C@@H]2CS1" only.
**Result** 495

**Query** Answer with the recorded IC50 of C#CCOc1cnc(/C(F)=C/c2ccc(F)c([C@]34CN(c5ncc(F)cn5)C[C@H]3CSC(N)=N4)c2)cn1 (stereo in doubt) only.
**Result** 5.49

**Query** Answer with the recorded IC50 of "C#CCOc1cnc(/C(F)=C/c2ccc(F)c([C@]34CN(C(=O)OC(C)C)C[C@H]3CSC(N)=N4)c2)cn1" only.
**Result** 92.2

**Query** Answer with the recorded IC50 of "NC1=N[C@@]2(c3cc(/C=C(\F)c4ccc(C(F)(F)F)cn4)ccc3F)CO[C@H](C(F)(F)F)[C@H]2CS1" only.
**Result** 1500

**Query** Answer with the recorded IC50 of "N#Cc1cnc(/C(F)=C/c2ccc(F)c([C@]34CO[C@H](C(F)(F)F)[C@H]3CSC(N)=N4)c2)c(Cl)c1" only.
**Result** 220

----------
# TESTED_TARGET: human recombinant BACE2 (Homo sapiens (Human), UniProt Q9Y5Z0)
# Sequence (Q9Y5Z0 63-518): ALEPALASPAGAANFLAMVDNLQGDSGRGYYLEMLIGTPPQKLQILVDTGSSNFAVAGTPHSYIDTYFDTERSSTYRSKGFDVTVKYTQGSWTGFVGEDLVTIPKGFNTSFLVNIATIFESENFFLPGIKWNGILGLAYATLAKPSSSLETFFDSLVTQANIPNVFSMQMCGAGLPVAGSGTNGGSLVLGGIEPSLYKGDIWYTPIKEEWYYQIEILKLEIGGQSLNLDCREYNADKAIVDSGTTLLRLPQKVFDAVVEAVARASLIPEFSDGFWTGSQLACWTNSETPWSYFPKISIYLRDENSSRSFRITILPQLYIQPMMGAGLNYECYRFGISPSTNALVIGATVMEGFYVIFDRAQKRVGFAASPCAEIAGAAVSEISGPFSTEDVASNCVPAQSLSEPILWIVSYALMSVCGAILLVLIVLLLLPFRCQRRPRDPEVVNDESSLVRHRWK
# ASSAY_INFO: In vitro enzymatic BACE2 FRET assay
# TEST_CONDITIONS: read-out: BACE2 Enzyme IC50
READOUT_NAME: pIC50
Kindly note that pIC50 refers to -log10 of the concentration in mol/L and answer with the value alone.

COMPOUND	READOUT_NAME	OBSERVED_RESULT
NC1=N[C@]2(c3cc(/C=C(\F)c4ccc(Cl)cn4)ccc3F)COC[C@@H]2CS1 [Example 104]	pIC50	5.13

**Query** Answer with the recorded pIC50 of COc1cnc(/C(F)=C/c2ccc(F)c([C@]34CO[C@H](C(F)(F)F)[C@H]3CSC(N)=N4)c2)cn1 [Example 136] only.
**Result** 5.18

**Query** Answer with the recorded pIC50 of C#CCOc1cnc(/C(F)=C/c2ccc(F)c([C@]34CN(c5ncccn5)C[C@H]3CSC(N)=N4)c2)cn1 [Example 120] only.
**Result** 7.47

**Query** Answer with the recorded pIC50 of COc1nc(N2C[C@H]3CSC(N)=N[C@@]3(c3cc(/C=C(\F)c4ccc(C#N)cn4)ccc3F)C2)nc(C)c1F [Example 130] only.
**Result** 8.75

**Query** Answer with the recorded pIC50 of N#Cc1ccc(/C(F)=C/c2ccc(F)c([C@]34COC[C@H]3CSC(N)=N4)c2)nc1 [Example 107] only.
**Result** 6.55

**Query** Answer with the recorded pIC50 of N#Cc1ccc(/C(F)=C/c2ccc(F)c([C@]34CO[C@H](C(F)(F)F)[C@H]3COC(N)=N4)c2)nc1 (single isomer, unassigned) [Example 142] only.
**Result** 5.45

**Query** Answer with the recorded pIC50 of COc1cnc(/C(F)=C/c2ccc(F)c([C@]34CN(c5ncc(F)cn5)C[C@H]3CSC(N)=N4)c2)cn1 [Example 108] only.
**Result** 7.47

----------
# TESTED_TARGET: Recombinant CatD (Homo sapiens (Human), UniProt P07339)
# Sequence (P07339 65-412): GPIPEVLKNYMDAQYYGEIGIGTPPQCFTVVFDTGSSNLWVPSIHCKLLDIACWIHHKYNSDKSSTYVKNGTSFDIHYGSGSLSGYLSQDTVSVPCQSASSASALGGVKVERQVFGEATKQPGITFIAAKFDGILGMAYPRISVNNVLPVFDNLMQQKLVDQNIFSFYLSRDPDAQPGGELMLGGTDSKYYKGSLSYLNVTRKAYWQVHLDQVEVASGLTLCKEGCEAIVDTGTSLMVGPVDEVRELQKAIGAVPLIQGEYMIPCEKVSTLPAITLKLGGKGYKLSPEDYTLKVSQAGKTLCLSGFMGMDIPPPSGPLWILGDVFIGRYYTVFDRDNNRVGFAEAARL
# ASSAY_INFO: In vitro enzymatic Cathepsin D (CatD) FRET assay
# TEST_CONDITIONS: read-out: Cat D Enzyme IC50
READOUT_NAME: pIC50
Kindly note that pIC50 refers to -log10 of the concentration in mol/L and answer with the value alone.

These solved cases illustrate the format of a correct answer.
COMPOUND	READOUT_NAME	OBSERVED_RESULT
NC1=N[C@@]2(c3cc(/C=C(\F)c4cnc(OCC(F)F)cn4)ccc3F)CN(c3ncc(F)cn3)C[C@H]2CS1	pIC50	4.58
C#CCOc1cnc(/C(F)=C/c2ccc(F)c([C@]34CN(C(=O)OC)C[C@H]3CSC(N)=N4)c2)cn1	pIC50	4.32

**Query** Answer with the recorded pIC50 of Cc1noc(COc2cnc(/C(F)=C/c3ccc(F)c([C@]45CN(c6ncc(F)cn6)C[C@H]4CSC(N)=N5)c3)cn2)n1 (stereo in doubt) only.
**Result** 5.35

----------
# TESTED_TARGET: human recombinant BACE1 (Homo sapiens (Human))
# Sequence (P56817 46-501): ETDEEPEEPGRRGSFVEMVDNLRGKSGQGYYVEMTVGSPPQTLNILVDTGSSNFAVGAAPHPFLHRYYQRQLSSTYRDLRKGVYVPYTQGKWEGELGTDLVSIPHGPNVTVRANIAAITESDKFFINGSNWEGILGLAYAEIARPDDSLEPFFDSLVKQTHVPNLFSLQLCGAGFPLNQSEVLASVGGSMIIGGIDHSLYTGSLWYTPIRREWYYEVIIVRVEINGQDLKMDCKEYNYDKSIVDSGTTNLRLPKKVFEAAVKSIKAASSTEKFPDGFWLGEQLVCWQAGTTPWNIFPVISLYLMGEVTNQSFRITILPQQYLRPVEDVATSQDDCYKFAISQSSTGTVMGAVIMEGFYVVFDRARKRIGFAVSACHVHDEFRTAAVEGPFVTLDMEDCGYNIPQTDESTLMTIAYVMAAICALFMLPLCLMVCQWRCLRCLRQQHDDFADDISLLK
# ASSAY_INFO: In vitro enzymatic BACE1 FRET assay
# TEST_CONDITIONS: read-out: BACE1 Enzyme IC50
READOUT_NAME: IC50 (µM)
Express it in µM; write the number only.

**Query** For human recombinant BACE1 (Homo sapiens (Human)), give the measured IC50 of the entry "N#Cc1ccc(/C(F)=C/c2ccc(F)c([C@]34CN(c5ncccn5)C[C@H]3CSC(N)=N4)c2)nc1"
**Result** 0.0043

----------
# Test system: BACE1 (Aβ40 from cells stably expressing Amyloid Precursor Protein)
# ASSAY_INFO: In vitro BACE1 cell-based assay (Aβ40 in conditioned medium, HTRF)
# TEST_CONDITIONS: Aβ40, 24 h incubation; read-out: BACE1 Cell IC50
READOUT_NAME: pIC50
Kindly note that pIC50 refers to -log10 of the concentration in mol/L and answer with the value alone.

COMPOUND	OBSERVED_RESULT
N#Cc1ccc(/C(F)=C/c2ccc(F)c([C@@]34CO[C@@H](C(F)(F)F)[C@@H]3COC(N)=N4)c2)nc1 (racemic) [Example 141]	6.79
N#Cc1ccc(/C(F)=C/c2ccc(F)c([C@@]34CO[C@@H](C(F)F)[C@@H]3CSC(N)=N4)c2)nc1	7.39
NC1=N[C@@]2(c3cc(/C=C(\F)c4ccc(Cl)cn4)ccc3F)CN(c3ncc(F)cn3)C[C@H]2CS1	8.71
N#Cc1ccc(/C(F)=C/c2ccc(F)c([C@@]34CO[C@@H](C(F)(F)F)[C@@H]3COC(N)=N4)c2)nc1 (single isomer, unassigned) [Example 143]	4.27

**Query** Answer with the recorded pIC50 of N#Cc1ccc(/C(F)=C/c2ccc(F)c([C@]34CO[C@H](C(F)(F)F)[C@H]3COC(N)=N4)c2)nc1 (single isomer, unassigned) only.
**Result** 7.23

**Query** Answer with the recorded pIC50 of "COc1nc(N2C[C@H]3CSC(N)=N[C@@]3(c3cc(/C=C(\F)c4ccc(C#N)cn4)ccc3F)C2)ncc1F" only.
**Result** 9.05

**Query** Answer with the recorded pIC50 of "NC1=N[C@@]2(c3cc(/C=C(\F)c4ccc(OC(F)(F)F)cn4)ccc3F)CO[C@H](C(F)(F)F)[C@H]2CS1" only.
**Result** 7.82

**Query** Answer with the recorded pIC50 of "N#Cc1cnc(/C(F)=C/c2ccc(F)c([C@]34CO[C@H](C(F)(F)F)[C@H]3CSC(N)=N4)c2)c(Cl)c1" only.
**Result** 7.32

**Query** Answer with the recorded pIC50 of "N#Cc1ccc(/C(F)=C/c2ccc(F)c([C@]34CN(c5ncc(F)cn5)C[C@H]3CSC(N)=N4)c2)nc1" only.
**Result** 9.17
